Target: T1, ZFP SBS#1199 (synthetic)
T1 chain: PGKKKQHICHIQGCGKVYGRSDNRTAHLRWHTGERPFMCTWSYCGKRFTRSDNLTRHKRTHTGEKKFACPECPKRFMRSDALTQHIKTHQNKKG
Assay: EMSA
Details: tags: MBP fusion
measurement kind: pKd
// pKd: -log10(molar conc.)

Recorded result, ATGGAGAAG (dsDNA) DNA 1: ATGGAGAAG DNA 2: CTTCTCCAT , pKd: 8.46
